- experimental-system: Recombinant human c-KIT kinase (Homo sapiens (Human), UniProt P10721)
- Sequence (P10721 26-976): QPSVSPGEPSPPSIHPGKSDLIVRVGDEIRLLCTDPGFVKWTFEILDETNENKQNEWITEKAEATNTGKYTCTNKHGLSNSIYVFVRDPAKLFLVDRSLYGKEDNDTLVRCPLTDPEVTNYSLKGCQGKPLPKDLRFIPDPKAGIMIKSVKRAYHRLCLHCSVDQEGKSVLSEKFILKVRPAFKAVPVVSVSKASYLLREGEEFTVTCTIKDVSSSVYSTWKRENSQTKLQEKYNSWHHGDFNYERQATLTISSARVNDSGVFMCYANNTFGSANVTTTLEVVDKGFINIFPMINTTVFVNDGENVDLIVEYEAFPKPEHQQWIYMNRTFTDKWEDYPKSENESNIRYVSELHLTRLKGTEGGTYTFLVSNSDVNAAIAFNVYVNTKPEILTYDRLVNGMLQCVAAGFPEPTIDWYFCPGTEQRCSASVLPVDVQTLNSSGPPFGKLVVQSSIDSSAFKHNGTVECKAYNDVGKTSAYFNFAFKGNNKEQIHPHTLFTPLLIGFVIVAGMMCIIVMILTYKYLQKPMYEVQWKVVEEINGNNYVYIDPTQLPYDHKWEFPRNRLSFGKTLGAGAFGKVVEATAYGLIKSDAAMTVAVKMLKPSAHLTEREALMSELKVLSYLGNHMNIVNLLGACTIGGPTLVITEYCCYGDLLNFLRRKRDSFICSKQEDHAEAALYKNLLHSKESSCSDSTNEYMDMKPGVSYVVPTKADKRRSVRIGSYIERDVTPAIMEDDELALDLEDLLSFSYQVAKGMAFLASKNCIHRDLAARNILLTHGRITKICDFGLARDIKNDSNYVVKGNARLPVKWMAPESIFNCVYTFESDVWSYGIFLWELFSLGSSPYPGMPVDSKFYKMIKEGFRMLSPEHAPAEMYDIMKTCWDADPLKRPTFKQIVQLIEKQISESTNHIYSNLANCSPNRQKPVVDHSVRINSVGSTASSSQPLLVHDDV
- run-description: c-KIT kinase chemiluminescence assay (ADP-Glo)
- cond: ATP 50 μM
pIC50: −log10 of the molar value.
experimental-readout: pIC50

1) COC(=O)N1CC2(CC(c3nc(-c4ccc(C)c(NC(=O)c5cnn6ccc(N7CC8(COC8)C7)cc56)c4)no3)C2)C1 : 6.00 to 7.00

Task: // returns reported pIC50 for input Cc1nc(Nc2ncc(C(=O)Nc3cc(-c4noc([C@H]5C[C@@H]5F)n4)ccc3C)s2)cc(N2CC3(COC3)C2)n1
Result: > 7.00

Task: Given the molecule Cc1ccc(-c2noc(C3CN(C(=O)OC(C)C)C3)n2)cc1NC(=O)c1cnc(-c2ccc3c(c2)CC(=O)N3)o1 , what is its reported pIC50?
Result: 6.00 to 7.00

---

Reported IC50 values follow for various compounds
- experimental-system: Recombinant human c-KIT kinase (Homo sapiens (Human))
- run-description: c-KIT kinase chemiluminescence assay (ADP-Glo)
- cond: ATP 50 μM

As a guide, the following entries are already answered.
1. Cc1ccc(-c2noc([C@H]3C[C@@H]3F)n2)c(F)c1NC(=O)c1cnn2ccc(N3CC4(COC4)C3)cc12 [Example 281-65] : < 100 nM
2. Cc1cc(F)c(-c2noc([C@H]3C[C@@H]3F)n2)cc1NC(=O)c1cnn2ccc(N3CC4(COC4)C3)cc12 [Example 281-42] : < 100 nM

Task: If you can, please state the reported IC50 value of Cc1ccc(-c2noc([C@H]3C[C@@H]3F)n2)cc1NC(=O)c1cnn2cc(Br)ccc12 [Example 41] .
Result: < 100 nM

Task: Please report the recorded IC50 for O=C(Nc1cc(-c2noc([C@H]3C[C@@H]3F)n2)ccc1Cl)c1cnn2ccc(N3CC4(COC4)C3)cc12 [Example 262] .
Result: < 100 nM

Task: Please look up its IC50: CC(=O)N1CCN(c2ccn3ncc(C(=O)Nc4cc(-c5noc([C@H]6C[C@@H]6F)n5)ccc4C)c3c2)C[C@H]1C [Example 234]
Result: < 100 nM

Task: Param item = Cc1ccc(-c2noc([C@H]3C[C@@H]3F)n2)cc1NC(=O)c1cnn2ccc(N3CC4(CCN4C(=O)OC(C)(C)C)C3)cc12 [Example 235] ; retrieve measured IC50.
Result: > 1000 nM

Task: Find the recorded IC50 belonging to Cc1ccc(-c2ncc(OC(F)F)cn2)cc1NC(=O)c1cnc(-c2ccc3c(c2)CC(=O)N3)o1 [Example 359] and report it.
Result: 100 to 1000 nM

---

- Tested on: M-07e cells
- run-description: M-07e cellular assay (SCF-mediated cell proliferation)
- Format: cell-based
- cond: Homo sapiens, 72 hours, CellTiter Glo
pEC50: −log10 of the molar value.
experimental-readout: pEC50

Example results:
1. Cc1ccc(-c2noc(C3CN(CC(F)(F)F)C3)n2)cc1NC(=O)c1cnn2ccc(N3CC4(COC4)C3)cc12 [Example 281-8] : > 7.00
2. Cc1ccc(-c2noc([C@H]3C[C@@H]3F)n2)cc1NC(=O)c1cnc(-c2ccc3[nH]c(=O)oc3c2)o1 [Example 300] : 6.00 to 7.00

Moving on to another molecule below.
Task: Need pEC50 of Cc1ccc(-c2noc([C@H]3C[C@@H]3F)n2)cc1NC(=O)c1cnn2ccc(-c3c(C)nc(N4CC(F)(F)C4)nc3C)cc12 [Example 171-13] , thanks.
Result: 6.00 to 7.00

---

Catalogue of EC50 readings, one per entry.
- Test system: M-07e cells
- run-description: M-07e cellular assay (SCF-mediated cell proliferation)
- Assay type: cell-based
- cond: Homo sapiens, 72 hours, CellTiter Glo

Reference set, count: 2
1. Cc1ccc(-c2noc([C@H]3C[C@@H]3F)n2)cc1NC(=O)c1cnn2ccc(-c3cnc(C(C)(C)O)nc3)cc12 [Example 158] : < 100 nM
2. O=C(Nc1cc(-c2noc([C@H]3C[C@@H](OC(F)(F)F)C3)n2)ccc1Cl)c1cnn2ccc(N3CC4(COC4)C3)cc12 [Example 264] : < 100 nM

Task: EC50 lookup needed for Cc1ccc(-c2noc(C3CC4(C3)CC(F)(F)C4)n2)cc1NC(=O)c1cnn2ccc(N3CC4(COC4)C3)cc12 [Example 281-2] , thanks.
Result: < 100 nM

Task: Which EC50 is reported for this molecule? COC(=O)N1CC(c2nc(-c3ccc(C)c(NC(=O)c4cnn5ccc(N6CC7(C6)CC(O)(C(F)F)C7)cc45)c3)no2)C1 [Example 281-53]
Result: < 100 nM

Task: Would you mind telling me what EC50 value was observed for Cc1cc(F)c(-c2noc([C@H]3C[C@@H]3F)n2)cc1NC(=O)c1cnc(-c2ccc3c(cnn3C(=O)OC(C)(C)C)c2)o1 [Example 308-10] ?
Result: 100 to 1000 nM

Task: Quick one: EC50 for Cc1ccc(-c2noc([C@H]3C[C@@H]3F)n2)cc1NC(=O)c1cnc(-c2cccc(N)n2)o1 [Example 305] ?
Result: > 1000 nM

---

- Test system: M-07e cells
- run-description: M-07e cellular assay (SCF-mediated cell proliferation)
- Assay type: cell-based
- cond: Homo sapiens, 72 hours, CellTiter Glo
pEC50: −log10 of the molar value.
experimental-readout: pEC50

1. Cc1ccc(-c2ccc(C3CC3)cn2)cc1NC(=O)c1cnn2ccc(N3CC4(COC4)C3)cc12 : > 7.00
2. Cc1ccc(-c2noc([C@H]3C[C@@H](OC(F)(F)F)C3)n2)cc1NC(=O)c1cnn2ccc(N3CC4(CN(CC(F)F)C4)C3)cc12 : > 7.00
3. Cc1cnc(-c2ccn3ncc(C(=O)Nc4cc(-c5noc([C@H]6C[C@@H]6F)n5)ccc4C)c3c2)c(C)n1 : > 7.00
4. Cc1ccc(-c2noc([C@H]3C[C@@H]3F)n2)cc1NC(=O)c1cnn2ccc(CO)cc12 : 6.00 to 7.00

Task: Record Cc1ccc(-c2noc([C@H]3C[C@@H]3F)n2)cc1NC(=O)c1cnn2cc(-c3cn(CCO)nn3)ccc12 : what is its pEC50 with M-07e cells?
Result: > 7.00

Task: // map Cc1sc(-c2noc(C3CN(C(=O)[C@H]4C[C@@H]4F)C3)n2)cc1NC(=O)c1cnn2ccc(N3CC4(C3)CC(O)(C(F)F)C4)cc12 to recorded pEC50 (system: M-07e cells)
Result: < 6.00

Task: Give the reported pEC50 for Cc1nc(C)c(-c2ccn3ncc(C(=O)Nc4cc(-c5noc([C@H]6C[C@@H]6F)n5)ccc4C)c3c2)s1 (system: M-07e cells).
Result: > 7.00

---

Examples of compounds with documented pIC50 follow.
- experimental-system: Recombinant human c-KIT kinase (Homo sapiens (Human))
- run-description: c-KIT kinase chemiluminescence assay (ADP-Glo)
- cond: ATP 50 μM
pIC50: −log10 of the molar value.

Record excerpt, results attached:
1) Cc1ncc(-c2ccc(C3CC3)cn2)cc1NC(=O)c1cnn2ccc(N3CC4(C3)CC(O)(C(F)F)C4)cc12 : > 7.00
2) CO[C@H]1C[C@@H](c2nc(-c3ccc(C)c(NC(=O)c4cnn5ccc(N6CC7(COC7)C6)cc45)c3)no2)C1 : 6.00 to 7.00
3) Cc1sc(-c2noc([C@H]3C[C@@H](OC(F)(F)F)C3)n2)cc1NC(=O)c1cnn2ccc(N3CC4(COC4)C3)cc12 : 6.00 to 7.00
4) Cc1ccc(-c2noc([C@H]3C[C@@H]3F)n2)cc1NC(=O)c1ccc2[nH]c(=O)[nH]c2c1 : < 6.00
5) Cc1ccc(-c2noc([C@H]3C[C@@H]3F)n2)cc1NC(=O)c1cnn(-c2ccccc2)c1 : 6.00 to 7.00
6) COc1ccn2ncc(C(=O)Nc3cc(-c4noc([C@H]5C[C@@H]5F)n4)ccc3C)c2c1 : > 7.00
7) Cc1ncc(-c2nnn(C3CN(C(=O)C4CC4)C3)n2)cc1NC(=O)c1cnn2ccc(N3CC4(C3)CC(O)(C(F)F)C4)cc12 : 6.00 to 7.00
8) Cc1ccc(-c2noc([C@H]3C[C@](O)(C(F)(F)F)C3)n2)cc1NC(=O)c1cnn2ccc(N3CC4(COC4)C3)cc12 : > 7.00

Task: Look up pIC50 with Recombinant human c-KIT kinase (Homo sapiens (Human)) for this compound: Cc1ccc(-c2noc(N3CC(F)(F)C3)n2)cc1NC(=O)c1cnn2ccc(N3CC4(COC4)C3)cc12
Result: 6.00 to 7.00

Task: # returns recorded pIC50 (system: Recombinant human c-KIT kinase (Homo sapiens (Human))) for Cc1ccc(-c2noc([C@H]3C[C@@H]3F)n2)cc1NC(=O)c1cnn2ccc(-c3ccn(C(F)F)n3)cc12
Result: > 7.00

---

- experimental-system: Recombinant human c-KIT kinase (Homo sapiens (Human))
- run-description: c-KIT kinase chemiluminescence assay (ADP-Glo)
- cond: ATP 50 μM
experimental-readout: IC50

1) Cc1ccc(-c2noc([C@H]3C[C@@H]3F)n2)cc1NC(=O)c1cnn2ccc(N3CC[C@H]3C(=O)OC(C)(C)C)cc12 : 0.1 to 1 µM
2) Cc1ccc(-c2noc([C@H]3C[C@@H]3F)n2)cc1NC(=O)c1cnc(-c2ccccc2N2CC3(COC3)C2)o1 : > 1 µM
3) Cc1ncc(-c2ncc(C3CC3)cn2)cc1NC(=O)c1cnn2ccc(-c3c(C)nc(N)nc3C)cc12 : > 1 µM

Task: If you can, please state the reported IC50 value of Cc1ccc(-c2nc3n(n2)CCCC3)cc1NC(=O)c1cnn2ccc(N3CC4(C3)CC(O)(C(F)F)C4)cc12 .
Result: 0.1 to 1 µM

Task: Give the measured IC50 of Cc1ncc(-c2nnn(CC3CC3)n2)cc1NC(=O)c1cnn2ccc(N3CC4(C3)CC(O)(C(F)F)C4)cc12 .
Result: 0.1 to 1 µM

Task: Requested field: IC50. Item: Cc1ccc(-c2cnc(C3CC3)cn2)cc1NC(=O)c1cnn2ccc(N3CC4(COC4)C3)cc12
Result: < 0.1 µM
